procedure.details: BSK_SAg_SRB: Viability Assessment in the BioMAP Diversity Plus: SAg Assay (AID 2283096);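 also: cells read one day after compound addition; hits may be either gain or loss of signal compared with DMSO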
setup.conditions: primary human HUVEC with PBMC
The source made the active and inactive calls. The calls were made as follows: active = hit-call score of the fitted dose curve at least 0.9, where 1 is the maximum; inactive = score below 0.9.

{"chemical.smiles": "CCCC(=O)O", "outcome": "inactive"}
{"chemical.smiles": "CC(C)c1cccc(C(C)C)c1NC(=O)NS(=O)(=O)c1cc(C(C)(C)O)co1", "outcome": "inactive"}
{"chemical.smiles": "CCCCc1nc2cccnc2n1Cc1ccc(-c2ccccc2-c2nnn[nH]2)cc1", "outcome": "inactive"}

###

procedure.details: APR_HepG2_MitoMembPot_24hr: Apredica 24-hour HepG2 Assay for Mitochondrial Membrane Potential (AID 2282911)
setup.conditions: imaging, actives raise or lower the signal
Activity calls are given as the source filed them. The calls were made as follows: active = hit-call score of the fitted dose curve at least 0.9, where 1 is the maximum; inactive = score below 0.9.
// one of active, inactive, no free text

# input Please let me know the test result on file for Cc1occc(=O)c1O .
# output inactive

# input I would be grateful if you could indicate the recorded call for CC(=O)S[C@H](C(=O)N[C@H]1Cc2ccccc2[C@H]2CCC[C@@H](C(=O)O)N2C1=O)C(C)C .
# output inactive

# input // param item: CS(=O)(=O)c1ccc([C@@H](C[C@H]2CCC(=O)C2)C(=O)Nc2cnccn2)cc1Cl ; yields the recorded call
# output inactive

# input // outcome(item) with item = CC1=C(C)S(=O)(=O)CCS1(=O)=O
# output inactive

# input Test call, this compound: Cc1cn([C@H]2C=C[C@@H](CO)O2)c(=O)[nH]c1=O
# output inactive

# input What did this assay record as the result for CCN(CC)CCOc1ccc(C(=C(Cl)c2ccccc2)c2ccccc2)cc1 ?
# output active

# input Please share the test call associated with O=C(Oc1ccccc1)c1cccc(C(=O)Oc2ccccc2)c1 .
# output inactive

# input What classification did CCCCCCCCCCCCCCCCO end up with in this test?
# output inactive
